Target: 5-hydroxytryptamine receptor 1A (Homo sapiens, UniProt P08908); also: assay procedure not described here
Sequence (P08908 whole entry): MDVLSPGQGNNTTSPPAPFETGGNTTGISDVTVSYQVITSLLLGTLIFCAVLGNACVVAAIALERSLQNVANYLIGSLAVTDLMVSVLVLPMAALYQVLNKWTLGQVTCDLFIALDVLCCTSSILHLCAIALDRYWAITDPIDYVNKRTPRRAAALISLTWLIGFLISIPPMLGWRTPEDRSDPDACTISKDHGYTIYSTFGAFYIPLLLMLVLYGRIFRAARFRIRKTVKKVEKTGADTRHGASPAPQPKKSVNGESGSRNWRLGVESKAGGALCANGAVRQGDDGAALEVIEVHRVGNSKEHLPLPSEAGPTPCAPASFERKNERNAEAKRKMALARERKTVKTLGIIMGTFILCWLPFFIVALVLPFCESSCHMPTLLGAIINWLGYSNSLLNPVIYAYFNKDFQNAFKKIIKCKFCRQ
Format: functional, cell-based
EXPERIMENTAL ENDPOINT: AC50

Example entries and their recorded answers appear below.
COMPOUND: O=C1CCc2cc(OCCCCc3nnnn3C3CCCCC3)ccc2N1 [CILOSTAZOL]
SUBJECT OF TEST: 5-hydroxytryptamine receptor 1A (Homo sapiens, UniProt P08908)
AC50: > 30 µM
--
COMPOUND: CCN1CCCC1CNC(=O)c1cc(S(=O)(=O)CC)c(N)cc1OC (stereo not given) [AMISULPRIDE]
SUBJECT OF TEST: 5-hydroxytryptamine receptor 1A (Homo sapiens, UniProt P08908)
AC50: > 30 µM
--
COMPOUND: CCCCC1C(=O)N(c2ccccc2)N(c2ccccc2)C1=O [PHENYLBUTAZONE]
SUBJECT OF TEST: 5-hydroxytryptamine receptor 1A (Homo sapiens, UniProt P08908)
AC50: > 10 µM
--
COMPOUND: CCOC(=O)O[C@]1(C(=O)OCCl)CC[C@H]2[C@@H]3CCC4=CC(=O)C=C[C@]4(C)[C@H]3[C@@H](O)C[C@@]21C [LOTEPREDNOL ETABONATE]
SUBJECT OF TEST: 5-hydroxytryptamine receptor 1A (Homo sapiens, UniProt P08908)
AC50: > 30 µM
--
COMPOUND: Cc1onc(-c2ccccc2)c1-c1ccc(S(N)(=O)=O)cc1 [VALDECOXIB]
SUBJECT OF TEST: 5-hydroxytryptamine receptor 1A (Homo sapiens, UniProt P08908)
AC50: > 10 µM
--
COMPOUND: CC(=O)[C@@]1(O)CC[C@H]2[C@@H]3C=C(Cl)C4=CC(=O)[C@@H]5C[C@@H]5[C@]4(C)[C@H]3CC[C@@]21C [CYPROTERONE]
SUBJECT OF TEST: 5-hydroxytryptamine receptor 1A (Homo sapiens, UniProt P08908)
AC50: > 10 µM
--
COMPOUND: CN1CCC(=C2c3ccccc3CCc3cccnc32)CC1 [AZATADINE]
SUBJECT OF TEST: 5-hydroxytryptamine receptor 1A (Homo sapiens, UniProt P08908)
AC50: > 30 µM
--
COMPOUND: CN1C[C@H](C(=O)N[C@]2(C)O[C@@]3(O)[C@@H]4CCCN4C(=O)[C@H](Cc4ccccc4)N3C2=O)C=C2c3cccc4[nH]cc(c34)C[C@H]21 [ERGOTAMINE]
SUBJECT OF TEST: 5-hydroxytryptamine receptor 1A (Homo sapiens, UniProt P08908)
AC50: 0.22 µM

Below: the item to evaluate.
Q) Query (compound): CCN1CCN(Cc2ccc(Nc3ncc(F)c(-c4cc(F)c5nc(C)n(C(C)C)c5c4)n3)nc2)CC1 [ABEMACICLIB] ; field requested: AC50
A) > 30 µM
